meta.source: patent US10709677B2

target_under_test: human alpha2A receptor (Homo sapiens, UniProt P08913)
Construct: CHO cells endogenously expressing human alpha2A receptor; endogenous in cells; host or cells: CHO cells
Sequence (P08913 whole entry): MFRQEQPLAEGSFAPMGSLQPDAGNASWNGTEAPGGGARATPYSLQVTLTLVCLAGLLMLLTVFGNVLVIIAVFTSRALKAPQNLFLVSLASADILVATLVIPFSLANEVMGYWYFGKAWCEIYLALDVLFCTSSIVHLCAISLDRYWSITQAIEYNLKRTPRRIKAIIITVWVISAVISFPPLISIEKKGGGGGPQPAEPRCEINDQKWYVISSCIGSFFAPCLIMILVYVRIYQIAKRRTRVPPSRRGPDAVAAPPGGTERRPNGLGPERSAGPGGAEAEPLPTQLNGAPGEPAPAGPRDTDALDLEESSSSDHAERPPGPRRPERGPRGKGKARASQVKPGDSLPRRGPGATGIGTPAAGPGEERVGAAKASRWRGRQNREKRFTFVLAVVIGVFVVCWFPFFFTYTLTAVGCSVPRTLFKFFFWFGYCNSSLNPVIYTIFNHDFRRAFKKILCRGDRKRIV
method_summary: Functional GPCR assay for adrenergic α2A receptor (CellKey detection method)
Assay type: cell-based
measurement_parameters: agonist activity, CHO cells, impedance; EC50>33.3 μM considered no significant alpha-2 adrenergic activity; read-out: Functional adrenergic alpha2 receptor assay EC50
assay_readout: EC50

QUERY: # value lookup — system human alpha2A receptor (Homo sapiens, UniProt P08913), readout EC50, item CC(=O)O.N=C(N)N/N=C/c1ccncc1Cl [Compound 7, acetate]
RESULT: > 33.3 µM
